- Tested on: RPS6KA5(Kin.Dom.2-C-terminal);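 further: KINOMEscan kinase panel screen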
- Test Settings: concentration: 1 μM, replicates: in singlicate; n = 1
# binarize %Inh: threshold 1% inclusive, high side Condition met, low side Condition not met

Q: Identify whether the reported %Inh of the following molecule is 1% or greater: `FC(F)(F)c1ccc(-c2nn3ncccc3c2-c2ccnc(Nc3cccc(C(F)(F)F)c3)n2)cc1`
Result: Condition met

Q: Hi team, for `CN1CCC(n2cnc(-c3ccc(F)cc3)c2-c2ccnc(NC3CCNCC3)n2)CC1` , is the recorded %Inh at or above 1%?
Result: Condition not met

Q: Hi, just wondering whether `Cl.O=S(=O)(c1cccc(F)c1)c1ccc(Nc2ncnc3cc(Br)sc23)cc1Cl` shows %Inh of 1% or higher.
Result: Condition met

Q: # bool: %Inh of `COc1ccc(-c2oc3ncnc(N)c3c2-c2ccc(OC)cc2)cc1` >= 1%
Result: Condition not met

Q: API: above_or_equal(metric=%Inh, cutoff=1%) for item `O=C(NCCCN1CCCC1=O)c1cnc(NCc2cc(Cl)ccc2Cl)nc1NC1CCNCC1`
Result: Condition not met

Q: Could you verify whether the entry `O=C(c1ccc(-c2cc(-c3c[nH]nc3-c3ccccn3)ccn2)cc1)N1CCCC1` shows %Inh of no less than 1%?
Result: Condition met

Q: Answer whether %Inh of `Fc1ccc(-c2ncn(CCCNCc3ccccc3)c2-c2ccncc2)cc1` is greater than or equal to 1%.
Result: Condition met
